Molecular target: T1, human IFN-ω (human, UniProt P05000 24-195)
T1 construct: Recombinant, HEK293; also called interferon omega
Assay: ProteOn SPR, cell supernatant;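 note: each binding measurement used just a single antigen concentration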
measured_quantity: pKd
The quantity pKd is defined as the negative base-10 logarithm of the molar concentration.

Past entries and their recorded results:
Please report the recorded pKd for IFWM3380 (antibody, IgG1, V domains shown, mAb; IgG1/kappa said of the parent and of selected mAbs; also called IFWB3115) VH: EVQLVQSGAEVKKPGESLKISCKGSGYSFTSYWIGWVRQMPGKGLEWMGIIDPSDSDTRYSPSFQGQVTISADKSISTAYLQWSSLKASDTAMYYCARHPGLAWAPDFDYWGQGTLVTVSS VL: DIQMTQSPSSLSASVGDRVTITCRASQSINRFLNWYQQKPGKAPKLLIYAASSLQSGVPSRFSGSGSGTDFTLTISSLQPEDFATYYCQQAIDLPFTFGQGTKVEIK .
10.60

Entry IFWM3403 (antibody, IgG1, V domains shown, mAb; IgG1/kappa said of the parent and of selected mAbs; also called IFWB3138) VH: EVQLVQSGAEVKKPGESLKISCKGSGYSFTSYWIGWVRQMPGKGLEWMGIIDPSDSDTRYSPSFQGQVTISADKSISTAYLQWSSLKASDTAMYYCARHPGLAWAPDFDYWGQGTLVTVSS VL: DIQMTQSPSSLSASVGDRVTITCRASQSIRNSLNWYQQKPGKAPKLLIKWASSLQSGVPSRFSGSGSGTDFTLTISSLQPEDFATYYCQQLYDWPLTFGQGTKVEIK please
11.15

Others:
Please report the recorded pKd for IFWM3382 (antibody, IgG1, V domains shown, mAb; IgG1/kappa said of the parent and of selected mAbs; also called IFWB3117) VH: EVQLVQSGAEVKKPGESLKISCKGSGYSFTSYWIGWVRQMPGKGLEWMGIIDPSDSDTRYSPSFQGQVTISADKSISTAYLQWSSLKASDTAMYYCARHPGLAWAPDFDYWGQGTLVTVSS VL: DIQMTQSPSSLSASVGDRVTITCRASQSIGSALNWYQQKPGKAPKLLIYFASSLQSGVPSRFSGSGSGTDFTLTISSLQPEDFATYYCQQSYDFPLTFGQGTKVEIK .
10.52

Entry IFWM3391 (antibody, IgG1, V domains shown, mAb; IgG1/kappa said of the parent and of selected mAbs; also called IFWB3126) VH: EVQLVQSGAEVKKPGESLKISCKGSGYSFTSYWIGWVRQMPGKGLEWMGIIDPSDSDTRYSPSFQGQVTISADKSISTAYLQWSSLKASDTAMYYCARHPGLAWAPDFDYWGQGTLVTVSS VL: DIQMTQSPSSLSASVGDRVTITCRASQSINNFLNWYQQKPGKAPKLLIYFASSLQSGVPSRFSGSGSGTDFTLTISSLQPEDFATYYCQQSFNLPITFGQGTKVEIK please
10.64

Entry IFWM3418 (antibody, IgG1, V domains shown, mAb; IgG1/kappa said of the parent and of selected mAbs; also called IFWB3153) VH: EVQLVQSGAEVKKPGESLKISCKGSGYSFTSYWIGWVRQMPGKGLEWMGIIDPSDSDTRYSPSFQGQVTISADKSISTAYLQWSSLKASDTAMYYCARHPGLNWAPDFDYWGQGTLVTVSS VL: DIQMTQSPSSLSASVGDRVTITCRASQSIAGFLNWYQQKPGKAPKLLIYYASSLQSGVPSRFSGSGSGTDFTLTISSLQPEDFATYYCQQSYSIPITFGQGTKVEIK please
10.05
